- Target desc: HLA-A*0301 (human)
- Protocol details: iTopia net score
List of iScore values.
Reply briefly: the number, and no unit.

Some solved cases for reference:
Binder	iScore
PAPSFACLK [cdr2 154-162 PAPSFACLK]	0.122
GQGRRSPGK [cdr2 140-148 GQGRRSPGK]	0.258

Request: State, in one line, measured iScore of HPFVNGVEK [cdr2 265-273 HPFVNGVEK]
Response: 0.05

Request: Look up and state reported iScore for LTVPESHRK [cdr2 296-304 LTVPESHRK]
Response: 0.128

Request: Identify measured iScore associated with VYDHVFAEK [cdr2 172-180 VYDHVFAEK]
Response: 0.048

Source listed as patent US20090208538A1.
